B1: TPR t1 (parent)
chain: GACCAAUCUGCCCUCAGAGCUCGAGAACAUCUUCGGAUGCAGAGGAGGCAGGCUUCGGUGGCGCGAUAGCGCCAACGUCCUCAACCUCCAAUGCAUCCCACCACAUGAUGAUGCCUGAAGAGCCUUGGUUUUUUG

variants of: B1; assay: polymerase ribozyme fitness, log enrichment relative to wild type (log ratio); higher = more active; in vitro selection for triplet polymerase activity
Each entry below carries its recorded polymerase ribozyme fitness (log ratio).
API doc: respond with a numeric literal and nothing else, no unit.

- Mutant name: "U54G C56G A83C"
  Property: "polymerase ribozyme fitness (log ratio)"
  Numeric readout: -2.03

Input G51U U106G G110U C124A , output reported polymerase ribozyme fitness (log ratio).
-6.4

Input A84G C98A , output reported polymerase ribozyme fitness (log ratio).
-6.26

Input U9C G117A , output reported polymerase ribozyme fitness (log ratio).
0.892

Input A41U A91C U92C , output reported polymerase ribozyme fitness (log ratio).
-2.44

Input G36C G51A C70A C101U , output reported polymerase ribozyme fitness (log ratio).
-7.34

Input C12G G71C A105G U125A , output reported polymerase ribozyme fitness (log ratio).
-4.36

Input C101U U106C A111C , output reported polymerase ribozyme fitness (log ratio).
-0.324

Input G45A C53U C97U C115U U126C U130A , output reported polymerase ribozyme fitness (log ratio).
-5.76

Input C53U G61A A105C , output reported polymerase ribozyme fitness (log ratio).
-2.22
